FYI, the data here is from ChEMBL document CHEMBL1126970.

Experiment: Inhibition of binding of [125I]-CCK-8 to the cholecystokinin type B receptor
Documented pIC50 across a set of compounds
The value called pIC50 is obtained by taking minus log10 of the concentration in mol/L.

CCOC(=O)CN1C(=O)C(NC(=O)Nc2ccc(Cl)cc2)N=C(c2ccccc2F)c2ccccc21 (racemic)
8.92

Ask: Using known records, supply pIC50 for CCOC(=O)CN1C(=O)C(NC(=O)c2ccc(Cl)cc2)N=C(c2ccccc2F)c2ccccc21 (racemic)
Result: 5.72

====

Molecular target: Cholecystokinin receptor type A (Rattus norvegicus, UniProt P30551)
Sequence (P30551 whole entry): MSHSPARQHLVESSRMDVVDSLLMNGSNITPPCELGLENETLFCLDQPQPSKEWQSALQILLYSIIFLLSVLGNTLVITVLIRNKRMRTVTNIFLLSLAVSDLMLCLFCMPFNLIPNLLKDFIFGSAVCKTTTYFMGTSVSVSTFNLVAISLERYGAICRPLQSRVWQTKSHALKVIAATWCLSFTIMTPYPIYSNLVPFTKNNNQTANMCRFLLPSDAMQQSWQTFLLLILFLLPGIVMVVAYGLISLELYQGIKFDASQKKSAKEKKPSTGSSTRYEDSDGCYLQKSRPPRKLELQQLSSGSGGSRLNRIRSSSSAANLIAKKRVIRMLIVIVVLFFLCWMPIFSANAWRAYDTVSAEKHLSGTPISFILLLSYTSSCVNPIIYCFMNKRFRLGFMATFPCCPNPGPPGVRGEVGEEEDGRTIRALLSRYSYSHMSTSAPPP
measured_property: log10 IC50 (log10 of the value in nM)
// units: nM (pre-log); metric: IC50; scale: log10

Would you please look over these solved cases?
CN1C(=O)C(NC(=O)Nc2cccc(CC(=O)O)c2)N=C(c2ccccc2)c2ccccc21 (centres undefined)
1.79
Cc1cccc(NC(=O)NC2N=C(c3ccccc3)c3ccccc3N(CC(=O)ON3CCC[C@@H]3C(=O)O)C2=O)c1 (mixture of isomers)
4.30
Cc1cccc(NC(=O)NC2N=C(c3ccncc3)c3ccccc3N(C)C2=O)c1 (racemic)
2.59

Ask: State measured log10 IC50 of the compound Cc1cccc(NC(=O)N[C@@H]2N=C(c3ccccc3)c3ccccc3NC2=O)c1 with Cholecystokinin receptor type A (Rattus norvegicus, UniProt P30551).
Result: 3.58

Ask: State measured log10 IC50 of the compound CCN(CC)C(=O)C(C)N1C(=O)C(NC(=O)Nc2ccc(Cl)cc2)N=C(c2ccccc2)c2ccccc21 (racemic) with Cholecystokinin receptor type A (Rattus norvegicus, UniProt P30551).
Result: 2.61

Ask: State measured log10 IC50 of the compound O=C(Nc1ccc(Cl)cc1)N[C@H]1N=C(c2ccccc2)c2ccccc2N(CC(=O)N2CCCC2)C1=O with Cholecystokinin receptor type A (Rattus norvegicus, UniProt P30551).
Result: 3.40

Ask: State measured log10 IC50 of the compound CN1C(=O)C(NC(=O)Nc2cccc(C(=O)O)c2)N=C(c2ccccc2)c2ccccc21 (racemic) with Cholecystokinin receptor type A (Rattus norvegicus, UniProt P30551).
Result: 1.15

Ask: State measured log10 IC50 of the compound COc1cccc(NC(=O)NC2N=C(c3ccccc3)c3ccccc3N(CC(=O)N3CCN(C)CC3)C2=O)c1 (racemic) with Cholecystokinin receptor type A (Rattus norvegicus, UniProt P30551).
Result: 3.15

Ask: State measured log10 IC50 of the compound Cc1cccc(NC(=O)NC2N=C(c3ccccc3)c3ccccc3N(CC(=O)N3CC[N+](C)(C)CC3)C2=O)c1 (racemic) with Cholecystokinin receptor type A (Rattus norvegicus, UniProt P30551).
Result: 3.79

Ask: State measured log10 IC50 of the compound Cc1cccc(NC(=O)N[C@H]2N=C(c3ccccc3)c3ccccc3N(C)C2=O)c1 with Cholecystokinin receptor type A (Rattus norvegicus, UniProt P30551).
Result: 0.67

Ask: State measured log10 IC50 of the compound CN1C(=O)C(NC(=O)Nc2ccc(C(F)(F)F)cc2)N=C(c2ccccc2)c2ccccc21 (centres undefined) with Cholecystokinin receptor type A (Rattus norvegicus, UniProt P30551).
Result: 3.11

Ask: State measured log10 IC50 of the compound CC(=O)Oc1cccc(NC(=O)N[C@@H]2N=C(c3ccccc3)c3ccccc3N(C)C2=O)c1 with Cholecystokinin receptor type A (Rattus norvegicus, UniProt P30551).
Result: 3.82

Ask: State measured log10 IC50 of the compound C[C@H](NC(=O)NC1N=C(c2ccccc2)c2ccccc2N(C)C1=O)c1ccccc1 (mixture of isomers) with Cholecystokinin receptor type A (Rattus norvegicus, UniProt P30551).
Result: 2.63

Ask: State measured log10 IC50 of the compound CN1C(=O)C(NC(=O)Nc2ccccn2)N=C(c2ccccc2)c2ccccc21 (racemic) with Cholecystokinin receptor type A (Rattus norvegicus, UniProt P30551).
Result: 2.65

Ask: State measured log10 IC50 of the compound O=C(Nc1ccc(Cl)cc1)NC1N=C(c2ccccc2)c2ccccc2NC1=O (racemic) with Cholecystokinin receptor type A (Rattus norvegicus, UniProt P30551).
Result: 2.04
